Test system: UO-31 renal
Test: NCI-60 one-dose screen, 48 h
Conditions: 10 µM unless noted
Compounds without any hit were thinned out: in the full panel of roughly 83,000, 20% have a hit. The source made the active and inactive calls. How the source made its calls: active means growth percent below 10; inactive means the rest.
Just give me one of these, please: t (active), f (inactive)

(Q) Which outcome did this test record for the compound "O=C(Nc1cccc(N=Cc2c(O)ccc3ccccc23)c1)c1ccccc1" ?
(A) f

(Q) Which outcome did this test record for the compound CC(C)(C)[Si](C)(C)OC1[C@@H](CNC(N)=O)O[C@@H](n2cnc3c(NC(=O)Nc4ccccc4)ncnc32)[C@H]1O[Si](C)(C)C(C)(C)C (some centres not stated) ?
(A) f

(Q) Which outcome did this test record for the compound CN1C(=O)N(C)C2C1NN=c1s/c(=C\c3ccsc3)c(=O)n12 (configuration not stated) ?
(A) f

(Q) Which outcome did this test record for the compound "Clc1ccc(C2=NN[C@H](c3cn(-c4ccccc4)nc3-c3ccccc3)C2)cc1" ?
(A) f

(Q) Which outcome did this test record for the compound "CS(=O)(=O)c1ccc(Cl)c([N+](=O)[O-])c1" ?
(A) t

(Q) Which outcome did this test record for the compound "COc1cc(/C=N/NC(=O)Cn2c(-c3ccc(C)o3)nc3ccccc32)ccc1OCc1ccccc1" ?
(A) f

(Q) Which outcome did this test record for the compound "CCOC(=O)c1ccc(NC(=O)CSC(N)=O)cc1" ?
(A) f

(Q) Which outcome did this test record for the compound "C#CCNc1nc(NCCNC(=O)CCl)nc(N(C)CCCCc2ccccc2)n1" ?
(A) f

(Q) Which outcome did this test record for the compound "O=C(/C=C/c1ccco1)c1ccccc1O" ?
(A) f

(Q) Which outcome did this test record for the compound "CCOC(=O)Cn1c(-c2nonc2NC(=O)c2ccccc2F)nc2ccccc21" ?
(A) f

(Q) Which outcome did this test record for the compound C=CCOC(=O)C1=C(C)NC2=C(C(=O)CCC2)C1c1ccc(F)cc1 (configuration not stated) ?
(A) f

(Q) Which outcome did this test record for the compound "O=[N+]([O-])c1ccc(Sc2nc(Cl)nc(NC3CCCC3)n2)cc1" ?
(A) t

(Q) Which outcome did this test record for the compound "COc1ccc(-c2cnnn2-c2nonc2-n2cccc2)cc1" ?
(A) f

(Q) Which outcome did this test record for the compound "COc1cc(OC)cc(-c2ccc(-c3ccc(C(=N)N)s3)s2)c1" ?
(A) t

(Q) Which outcome did this test record for the compound "CN(C)CCCN1c2ccccc2CCc2ccccc21" ?
(A) f

(Q) Which outcome did this test record for the compound "C=CCOc1ccc2c(C)cc(=O)oc2c1" ?
(A) f

(Q) Which outcome did this test record for the compound "O=C(NO)c1ccc(CNc2cccc3nc(C4CC4)n(-c4ccccc4)c(=O)c23)cc1" ?
(A) t

(Q) Which outcome did this test record for the compound "CS(=O)(=O)c1ccc(C(=O)N/N=C/c2ccccc2Cl)cc1" ?
(A) f

(Q) Which outcome did this test record for the compound "CCOC(=O)C(CCCCC(NC(C)=O)(C(=O)OCC)C(=O)OCC)(NC(C)=O)C(=O)OCC" ?
(A) f

(Q) Which outcome did this test record for the compound "Cc1ccncc1NC=O" ?
(A) f

(Q) Which outcome did this test record for the compound "Cc1ccc(C)c2c1SC1=NNC(Oc3ccc(Cl)cc3)=C(C#N)C(=N)N12" ?
(A) f

(Q) Which outcome did this test record for the compound "O=C1NN(C(=O)c2ccccc2)C(c2ccc(Cl)c(Cl)c2)=C/C1=C\c1ccccc1[N+](=O)[O-]" ?
(A) t
